TARGET_ENTITY: μ-opioid receptors (MOR) (Homo sapiens, UniProt P35372)
Construct: host or cells: HEK293
Sequence (P35372 whole entry): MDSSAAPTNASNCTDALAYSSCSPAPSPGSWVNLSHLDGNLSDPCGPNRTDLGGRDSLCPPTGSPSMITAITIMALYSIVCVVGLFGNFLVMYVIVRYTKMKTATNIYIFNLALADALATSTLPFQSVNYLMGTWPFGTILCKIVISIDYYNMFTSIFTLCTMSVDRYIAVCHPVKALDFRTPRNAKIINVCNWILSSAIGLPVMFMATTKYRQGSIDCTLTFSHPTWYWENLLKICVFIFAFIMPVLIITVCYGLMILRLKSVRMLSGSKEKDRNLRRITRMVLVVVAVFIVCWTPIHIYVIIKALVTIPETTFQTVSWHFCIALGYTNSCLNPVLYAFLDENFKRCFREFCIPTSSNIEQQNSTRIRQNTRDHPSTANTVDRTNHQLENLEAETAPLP
ASSAY_PROCEDURE: MOR activity test: HEK293/MOR/CRE luciferase reporter, agonizing MOR and affecting downstream cAMP levels
Type: cell-based
Protocol: The compounds of the present invention can activate μ-opioid receptors (MOR). […] Luciferase can react with its substrate to emit fluorescence, and the measured fluorescence signals reflect the agonistic activity of the compounds. […] The activity of the compounds of the present invention on agonizing MOR and affecting downstream cAMP levels was determined by the above test, and the EC50 values are shown in Table 1.1.
RECORDED_ENDPOINT: pEC50
Quick note: pEC50 means taking -log10 of the concentration in moles per liter.

Some solved entries appear below for comparison.
- SMILES_NOTATION: "O[C@@H]1CC[C@H](NCC[C@@]2(c3ccccn3)CCOC3(CCCC3)C2)c2ccccc21"
  EXPERIMENTAL_RESULT: 8.10
- SMILES_NOTATION: "CO[C@H]1CC[C@H](NCC[C@@]2(c3ccccn3)CCOC3(CCCC3)C2)c2ccccc21"
  EXPERIMENTAL_RESULT: 8.52

Indicate the recorded pEC50 value for this compound: `c1ccc([C@]2(CCN[C@H]3CCCc4ccccc43)CCOC3(CCCC3)C2)nc1`
8.40

###

TARGET_ENTITY: MOR receptor (Homo sapiens)
Construct: host or cells: CHO-K1
Sequence (P35372 whole entry): as above
ASSAY_PROCEDURE: Activation of the β-arrestin signaling pathway of MOR receptor (CHO-K1 OPRM1 β-Arrestin cells, DiscoveRX)
Type: cell-based
CONDITIONS_USED: maximum effect of morphine is 100%
Class (by Emax) -- low group (below 10%), middle group (10% to below 20%), high group (20% or more)

Worked examples, 5 compounds total:
- SMILES_NOTATION: "C=C1CC[C@H](NCC[C@@]2(c3ccccn3)CCOC3(CCCC3)C2)c2ccccc21"
  LABEL_CLASS: "high group"
- SMILES_NOTATION: "O=C1CC[C@H](NCC[C@@]2(c3ccccn3)CCOC3(CCCC3)C2)c2ccccc21"
  LABEL_CLASS: "high group"
- SMILES_NOTATION: "c1ccc([C@]2(CCN[C@H]3CCC4(OCCO4)c4ccccc43)CCOC3(CCCC3)C2)nc1"
  LABEL_CLASS: "high group"
- SMILES_NOTATION: "c1ccc([C@]2(CCN[C@H]3CCC4(SCCS4)c4ccccc43)CCOC3(CCCC3)C2)nc1"
  LABEL_CLASS: "high group"
- SMILES_NOTATION: "CCN1CC[C@@H](NCC[C@@]2(c3ccccn3)CCOC3(CCCC3)C2)c2ccccc21"
  LABEL_CLASS: "low group"

Could you place `N#CCO[C@H]1CC[C@H](NCC[C@@]2(c3ccccn3)CCOC3(CCCC3)C2)c2ccccc21` in its proper category? Many thanks.
high group

Bin? `c1ccc([C@]2(CCN[C@H]3CC[C@H](OCC4CC4)c4ccccc43)CCOC3(CCCC3)C2)nc1`
low group

Class for `CCN1CC[C@H](NCC[C@@]2(c3ccccn3)CCOC3(CCCC3)C2)c2ccccc21` ?
middle group

###

TARGET_ENTITY: μ-opioid receptors (MOR) (Homo sapiens)
Construct: host or cells: HEK293
ASSAY_PROCEDURE: MOR activity test: HEK293/MOR/CRE luciferase reporter, agonizing MOR and affecting downstream cAMP levels
Type: cell-based
CONDITIONS_USED: HEK293; maximum effect of TRV-130 is 100%; read-out: Emax on agonizing MOR receptor and affecting cAMP levels
Protocol: The compounds of the present invention can activate μ-opioid receptors (MOR). […] Luciferase can react with its substrate to emit fluorescence, and the measured fluorescence signals reflect the agonistic activity of the compounds. […] The activity of the compounds of the present invention on agonizing MOR and affecting downstream cAMP levels was determined by the above test, and the EC50 values are shown in Table 1.1.
RECORDED_ENDPOINT: Emax (%)
Please reply with the bare figure in % and do not write the unit itself.

Illustrative cases are given below, each with its answer.
- MOLECULE: "CO[C@@H]1CC[C@H](NCC[C@@]2(c3ccccn3)CCOC3(CCCC3)C2)c2ccccc21 [Example 30]"
  UNIT_ANNOTATION: "%"
  Emax: 126
- MOLECULE: "c1ccc([C@]2(CCN[C@@H]3CCOc4ccccc43)CCOC3(CCCC3)C2)nc1 [Example 7]"
  UNIT_ANNOTATION: "%"
  Emax: 0
- MOLECULE: "c1ccc([C@]2(CCN[C@H]3CCOc4ccccc43)CCOC3(CCCC3)C2)nc1 [Example 6]"
  UNIT_ANNOTATION: "%"
  Emax: 115

As a next step, examine the molecule that follows.
Please give the documented Emax of CCN1CC[C@@H](NCC[C@@]2(c3ccccn3)CCOC3(CCCC3)C2)c2ccccc21 [Example 2]
0
